target: Retinoic acid receptor RXR-beta (Homo sapiens); assay: Activity at Gal4-tagged human RXRbeta receptor expressed in human HeLa cells assessed as relative transcriptional activity by luciferase reporter assay relative to CD3254; format: cell-based; set-up: concentration or dose not given beside the values
Each item that follows carries a reported Activity.

{"Record Smiles": "COc1cc(-c2cc(/C=C/C(=O)O)ccc2O)cc2c1C(C)(C)CCC2(C)C", "Activity": "> 30%"}
{"Record Smiles": "CCOc1cc(-c2cc(/C=C/C(=O)O)ccc2O)cc2c1C(C)(C)CCC2(C)C", "Activity": "> 10%"}
{"Record Smiles": "CCCCCCOc1cc(-c2cc(/C=C/C(=O)O)ccc2O)cc2c1C(C)(C)CCC2(C)C", "Activity": "> 10%"}
{"Record Smiles": "CCCOc1cc(-c2cc(/C=C/C(=O)O)ccc2O)cc2c1C(C)(C)CCC2(C)C", "Activity": "> 10%"}
{"Record Smiles": "CCCCOc1cc(-c2cc(/C=C/C(=O)O)ccc2O)cc2c1C(C)(C)CCC2(C)C", "Activity": "> 10%"}
{"Record Smiles": "CCCCCOc1cc(-c2cc(/C=C/C(=O)O)ccc2O)cc2c1C(C)(C)CCC2(C)C", "Activity": "> 10%"}

----------
molecular target: Retinoic acid receptor alpha/Retinoid X receptor alpha (Homo sapiens) (UniProt P10276+P19793); assay: Activity at RARalpha/RXRalpha ligand binding domain assessed as stabilization of RXR helix H12 by fluorescence anisotropy in presence of up to 10 uM coactivator peptide TIF-NR2; type: protein-complex assay
Activity calls are given as the source filed them. The rule behind the calls is not given here.
Possible outcomes: 1 for active, 0 for inactive

{"Record Smiles": "CCCCCCOc1cc2c(cc1-c1cc(/C=C/C(=O)O)ccc1O)C(C)(C)CCC2(C)C", "Qualitative Label": 0}
{"Record Smiles": "CCCCOc1cc(-c2cc(/C=C/C(=O)O)ccc2O)cc2c1C(C)(C)CCC2(C)C", "Qualitative Label": 1}
{"Record Smiles": "CCCCCOc1cc2c(cc1-c1cc(/C=C/C(=O)O)ccc1O)C(C)(C)CCC2(C)C", "Qualitative Label": 0}
{"Record Smiles": "CCCCCOc1cc(-c2cc(/C=C/C(=O)O)ccc2O)cc2c1C(C)(C)CCC2(C)C", "Qualitative Label": 1}
{"Record Smiles": "CCCOc1cc(-c2cc(/C=C/C(=O)O)ccc2O)cc2c1C(C)(C)CCC2(C)C", "Qualitative Label": 1}

----------
target: Retinoic acid receptor alpha/Retinoid X receptor alpha (Homo sapiens) (UniProt P10276+P19793); test: Activity at RARalpha/RXRalpha ligand binding domain assessed as stabilization of RXR helix H12 by fluorescence anisotropy in presence of up to 10 uM coactivator peptide TIF-NR2; type: protein-complex assay
Active and inactive are the calls of the source. The calls are words filed in the database; no cut-off is given here.

{"Record Smiles": "CCOc1cc(-c2cc(/C=C/C(=O)O)ccc2O)cc2c1C(C)(C)CCC2(C)C", "Activity": "Active"}
{"Record Smiles": "CCCCCCOc1cc(-c2cc(/C=C/C(=O)O)ccc2O)cc2c1C(C)(C)CCC2(C)C", "Activity": "Active"}
{"Record Smiles": "COc1cc(-c2cc(/C=C/C(=O)O)ccc2O)cc2c1C(C)(C)CCC2(C)C", "Activity": "Active"}
